# System: MS2 coat protein
# test: apparent KD of MS2 coat protein, switch OFF state (with FMN for OFF switches, without FMN for ON switches); designed switch direction (-1 OFF switch, 1 ON switch): -1; higher = weaker reporter binding
# conditionLabel: FMN input: 0 or 200 uM; Eterna round: R93 (includes R88 designs)
Values of apparent KD of MS2 coat protein greater than or equal to 40 nM map to T; values below map to F.

# sequenceEntry, classLabel
data = [
    ("AAGAGUAGAGGAUAUACAUGAAAAGAGUCGAAAGACUCAAAACAUGAGGAUCACCCAUGUAGAAGGCUACUCAA [Hyphema Seclusion Mod 62% 3]", "T"),
    ("AAGAAGGUAGGAUAUACUAGGGCAACUAAUGCAAAGAUAAAACAUGAGGAUCACCCAUGUAGAAGGGCCAGAAA [JR_Exc002_Sub401]", "F"),
    ("GCUUUGCAAGGAUAUACAUGAGGAUCACCCAUGUGAGAGAAAAAAGUGAGAAAGAAAAGUAGAAGGUGCGGAGG [salish99-ex3-120]", "T"),
    ("GACGAGUGAGGAUAUGUAAAAAAAAGAGAAGAGAAGAGAGAACAGAAGGCACAUGAGGAUCACCCAUGUAGGGA [Default title]", "T"),
    ("CUCAAGUUAGGAUAUACAAGAAAAGAAGAGAAAGAAAAGAAGUAGAAGGAACAUGAGGAUCACCCAUGUAAGAA [EteRNA is fun!]", "F"),
    ("AACUGACAUGAGGAUCACCCAUGUCAGGAUAUGCUUAAUAAAAAAAAAAAAAAAUGAUGCAGAAGGGAUAUGGG [Amethyst 56]", "F"),
    ("AAGAUGUAAGGAUAUGCUGCUCGUCACAAAAGUGAUGAGUAGCAGAAGGUACAUGAGGAUCACCCAUGUAAAGA [JL eternac mod 10]", "T"),
    ("AAGAAGUCAGGAUAUGCUGCUCGUCACUUGCGUGAUGAGUAGCAGAAGGGACAUGAGGAUCACCCAUGUAAAGA [Exclusion4-cac2]", "T"),
    ("AGAACGUCAGGAUAUCGAACAACAAGUAAAUAGAGAAGAAGCGAGAAGGGACAUGAGGAUCACCCAUGUAAGAA [e4-3]", "T"),
    ("AAAAAGGGAGGAUAUACAUGAGUAGAUCGUGUAAAAAAAAUACAUGAGGAUCACCCAUGUAGAAGGCCCAAAAA [Ecxl-III]", "F"),
]

Data provenance is the supplement of paper PMC9170038.
